assay: qHTS assay to identify small molecule antagonists of the estrogen related receptor (ERR) signaling pathway from Tox21 library (AID 1224848); conditions: ERR reporter cell line, luciferase antagonist mode, 18 h; series mostly up to 92.4 µM; also: nearly all actives have a fitted effect of over 50% in size
Records with an inconclusive call do not appear. Active and inactive are the calls of the source. Calls follow the shape of the dose curve; as a rule, active = well fitted inhibition curve with a large enough effect in the repeat runs; inconclusive = weak or mixed curves; inactive = no such curve, though single readings can be large or run the other way.
Permitted responses: active, inactive

Assay result, entry OC(c1ccc(Cl)cc1)(c1ccc(Cl)cc1)C(Cl)(Cl)Cl — outcome?
inactive

Try C=CC(=O)OCC(COC(=O)C=C)(COC(=O)C=C)COC(=O)C=C next.
active

Try CCCCOP(=O)(CCCC)OCCCC next.
inactive

Try Oc1c(Cl)c(Cl)cc(Cl)c1Cl next.
active

Try CCCCOCN(C(=O)CCl)c1c(CC)cccc1CC next.
active

Try COc1cccc(C(=O)CCN[C@@H](C)[C@H](O)c2ccccc2)c1 next.
inactive

Try Clc1ccc(CCC(Cn2ccnc2)Sc2c(Cl)cccc2Cl)cc1 (centres undefined) next.
active

Try Clc1ccc(-c2ccc(Cl)c(Cl)c2Cl)c(Cl)c1Cl next.
inactive

Try C[As+](C)(C)CC(=O)[O-] next.
inactive

Try CCOCCOC(C)=O next.
inactive

Try O=[N+]([O-])c1c2ccccc2cc2ccccc12 next.
inactive

Try Clc1ccc(CO/N=C(\Cn2ccnc2)c2ccc(Cl)cc2Cl)c(Cl)c1 next.
active

Try C[C@@H]1CC[C@@]2(OC1)O[C@H]1[C@@H](O)[C@H]3[C@@H]4CC[C@H]5C[C@@H](O[C@@H]6O[C@H](CO)[C@H](O[C@@H]7O[C@H](CO)[C@@H](O)[C@H](O[C@@H]8OC[C@@H](O)[C@H](O)[C@H]8O)[C@H]7O[C@@H]7O[C@H](CO)[C@@H](O)[C@H](O[C@@H]8O[C@H](CO)[C@@H](O)[C@H](O)[C@H]8O)[C@H]7O)[C@H](O)[C@H]6O)[C@H](O)C[C@]5(C)[C@H]4CC[C@]3(C)[C@H]1[C@@H]2C next.
active

Try CC[C@H]1C[C@@H]2C[C@H]3c4[nH]c5ccc(OC)cc5c4CCN(C2)[C@@H]13 next.
active

Try Clc1ccc(-c2ccccc2)cc1 next.
inactive

Try CC(C)CC(C)N (centres undefined) next.
inactive

Try COc1cccc2c1C(=O)c1c(O)c3c(c(O)c1C2=O)C[C@@](O)(C(=O)CO)CC3OC1CC(N2CCOC(OC)C2)C(O)C(C)O1 (some centres undefined) next.
inactive

Try CN(C)C1CSSSC1 next.
inactive

Try C[C@H]1O[C@@H](O[C@H]2[C@@H](O)C[C@H](O[C@H]3[C@@H](O)C[C@H](O[C@H]4CC[C@@]5(C)[C@H](CC[C@@H]6[C@@H]5CC[C@]5(C)[C@@H](C7=CC(=O)OC7)CC[C@]65O)C4)O[C@@H]3C)O[C@@H]2C)C[C@H](O)[C@@H]1O next.
inactive

Try COCC(=O)N(c1c(C)cccc1C)[C@H](C)C(=O)OC next.
inactive

Try O=C(O)C1C2CCC(O2)C1C(=O)O (centres undefined) next.
inactive

Try BrC(Br)Br next.
inactive

Try O=C/C(Cl)=C(/Cl)C(=O)O next.
inactive

Try CCOP(=S)(OCC)OC(Cl)C(Cl)(Cl)Cl (centres undefined) next.
inactive

Try CC(C)(C)C(O)C(Oc1ccc(-c2ccccc2)cc1)n1cncn1 (centres undefined) next.
active

Try Cc1cc(C)c(C2=C(OC(=O)CC(C)(C)C)C3(CCCC3)OC2=O)c(C)c1 next.
inactive

Try Cc1ccc(C(=O)Cl)cc1 next.
inactive

Try CC(C)(O)c1cnn2c(-c3ccc(F)c(-c4c(F)cccc4C#N)c3)cnc2n1 next.
active

Try C[C@]12CC[C@H](O)C[C@H]1CC[C@@H]1[C@@H]2C[C@@H](O)[C@]2(C)[C@@H](C3=CC(=O)OC3)CC[C@]12O next.
active

* * *

assay: qHTS assay to test for compound auto fluorescence at 590 nm (red) in HepG2 cell free culture (AID 720684); details: cell-free medium autofluorescence, red 540/590 nm; series mostly up to 91.3 µM; also: % is scaled to controls: 0 for no effect and ±100 for the full control effect
The source made the active and inactive calls. The call rests on the fitted dose curve; in most records, active means well fitted curve in the direction sought with a large enough effect in the repeat runs; inconclusive means weak or mixed curves; inactive means flat fitted curve, though single readings scatter.
value-kind: fluorescence, % of Rose Bengal

Solved entries (count: 5):
- molecule: "CCCN(CCC)CCc1c[nH]c2ccccc12"
  fluorescence, % of Rose Bengal: "inactive"
- molecule: "O=[N+]([O-])c1ccc2ccc3cccc4ccc1c2c34"
  fluorescence, % of Rose Bengal: "inactive"
- molecule: "[Hg+2].[I-].[I-]"
  fluorescence, % of Rose Bengal: "inactive"
- molecule: "FC(Cl)(Cl)Cl"
  fluorescence, % of Rose Bengal: "inactive"
- molecule: "[Cl][Sb]([Cl])[Cl]"
  fluorescence, % of Rose Bengal: "inactive"

I'd like to know its fluorescence, % of Rose Bengal. The molecule in question is O=[N+]([O-])c1c2ccccc2cc2ccccc12
inactive

Try CC1(c2ccc(Oc3ccccc3)cc2)OC(=O)N(Nc2ccccc2)C1=O (configuration not stated) next.
inactive

Try CC(=O)[O-].[Tl+] next.
inactive

Try Oc1c(Cl)c(Cl)cc(Cl)c1Cl next.
inactive

Try Cc1ccc(OP(=O)(Oc2ccccc2)Oc2ccccc2)cc1 next.
inactive

Try O=C/C(Cl)=C(/Cl)C(=O)O next.
inactive

Try CCC(C)(C)C(=O)OC1=C(c2ccc(Cl)cc2Cl)C(=O)OC12CCCCC2 next.
inactive

Try Cc1cc(C)cc(OP(=O)(Oc2cc(C)cc(C)c2)Oc2cc(C)cc(C)c2)c1 next.
inactive

Try COc1ccc(/C(=C/C(=O)N2CCOCC2)c2ccc(Cl)cc2)cc1OC next.
inactive

Try O=[N+]([O-])c1ccc(Oc2ccc(C(F)(F)F)cc2[N+](=O)[O-])cc1 next.
inactive

Try CC(=O)[O-].CC(=O)[O-].O.O.[Cd+2] next.
inactive

Try CNC(C)Cc1ccc2c(c1)OCO2 (configuration not stated) next.
inactive

Try CN(C)C(=S)[S-].CN(C)C(=S)[S-].[Cu+2] next.
0.0949% [at 18.6 µM] (inactive)

Try Oc1c(Br)c(Br)c(Br)c(Br)c1Br next.
inactive

Try CCCCCCCCCC[N+](C)(C)CCCCCCCCCC next.
inactive

Try CCN next.
inactive

Try Clc1ccc(C(Cl)(Cl)Cl)c(Cl)c1 next.
inactive

Try CC(C)OC(=O)C(O)(c1ccc(Cl)cc1)c1ccc(Cl)cc1 next.
inactive

Try c1ccc(Nc2ccc3ccccc3c2)cc1 next.
inactive

Try Clc1ccc(CSC(Cn2ccnc2)c2ccc(Cl)cc2Cl)cc1 (configuration not stated) next.
-0.065% [at 18.6 µM] (inactive)

* * *

assay: qHTS assay for identifying genotoxic compounds that show differential cytotoxicity against isogenic chicken DT40 cell lines with known DNA damage response pathways - Rev3 mutant cell line (AID 743014); details: chicken DT40 Rev3-/- viability, CellTiter-Glo, 40 h; series mostly up to 68.4 µM; also: nearly all actives have a fitted effect of over 55% in size; also: potency is read from the fitted curve at half-maximal effect
Results filed as inconclusive are left out. The source made the active and inactive calls. Calls follow the shape of the dose curve; as a rule, active = well fitted cell-killing curve with a large enough effect in the repeat runs; inconclusive = weak or mixed curves, or effect the other way; inactive = no such curve, though single readings can be large or run the other way.
value-kind: Potency

Solved entries (count: 5):
- compound: "CC(=O)C(Cl)(Cl)Cl"
  value-kind: "Potency"
  assay-result: "16.6 µM (active)"
- compound: "CC(=O)/C=C/c1ccc2c(c1)OCO2"
  value-kind: "Potency"
  assay-result: "68.9 µM (active)"
- compound: "CC(Cc1ccc(C(C)(C)C)cc1)CN1C[C@@H](C)O[C@@H](C)C1 (some centres not stated)"
  value-kind: "Potency"
  assay-result: "5.45 µM (active)"
- compound: "CC1(C)[C@H](C(=O)O[C@H](C#N)c2cccc(Oc3ccccc3)c2)[C@@H]1/C=C(\\Cl)C(F)(F)F"
  value-kind: "Potency"
  assay-result: "50.5 µM (active)"
- compound: "ClC(Cl)=C(Cl)Cl"
  value-kind: "Potency"
  assay-result: "inactive"

I'd like to know its Potency. The compound in question is BrC(Br)Br
inactive

Try CC(C)OC(=O)C(O)(c1ccc(Cl)cc1)c1ccc(Cl)cc1 next.
6.86 µM (active)

Try CCN(CC)C(=S)[S-].CCN(CC)C(=S)[S-].[Zn+2] next.
1.08 µM (active)

Try N#CC(Cl)Cl next.
59.5 µM (active)

Try CC(C)CC(C)Nc1ccc(Nc2ccccc2)cc1 (configuration not stated) next.
16.9 µM (active)

Try Cc1cc(C)cc(OP(=O)(Oc2cc(C)cc(C)c2)Oc2cc(C)cc(C)c2)c1 next.
inactive

Try S=C=Nc1cccc2ccccc12 next.
60.5 µM (active)

* * *

assay: qHTS assay for small molecule agonists of the p53 signaling pathway (AID 651631); conditions: HCT-116 p53RE-bla reporter, beta-lactamase FRET ratio, 16 h; series mostly up to 73.3 µM; also: nearly all actives have a fitted effect of over 15% in size
Results filed as inconclusive are left out. The source made the active and inactive calls. Calls follow the shape of the full dose curve.
Permitted responses: 1 (active), -1 (inactive)

Assay result, entry O=CC(Br)(Br)Br — outcome?
1

Try c1ccc(OCC2CO2)cc1 (configuration not stated) next.
-1

Try ClC(Cl)=C(Cl)Cl next.
-1

Try CC(C)CCCCCCCOP(=O)(Oc1ccccc1)Oc1ccccc1 next.
-1

Try CCCN(CCC)CCc1c[nH]c2ccccc12 next.
-1

Try CCOC(=O)OC1=C(c2cc(C)ccc2C)C(=O)NC12CCC(OC)CC2 (configuration not stated) next.
1

Try CCC(C)c1cc([N+](=O)[O-])cc([N+](=O)[O-])c1OC(=O)C=C(C)C (configuration not stated) next.
1
